System: SK-MEL-2
TEST SUMMARY: NCI tumour cell line growth inhibition, 48 h
Activity calls are given as the source filed them. Cut-off read from the data, not from the text of the source: active = GI50 up to about 1.1 µM and inactive = higher.
Give one outcome, nothing more. List: active, inactive

{"columns": ["MOLECULE", "CATEGORY LABEL"],
 "data": [
  ["CCN(CCN(CC)C(=O)Nc1ccccc1)C(=O)Nc1ccccc1", "inactive"],
  ["CN1CCC(CNC(=O)CCCCCCCCC(=O)NCC2(c3ccccc3)CCN(C)CC2)(c2ccccc2)CC1", "inactive"]
]}

Hi team, can someone confirm the assay call for "Clc1c2ncccc2cc2nn[nH]c12" ?
inactive

Can you handle "C/C(=N\NC(=O)C[N+](C)(C)C)c1sc(-c2cccnc2)nc1C" next?
inactive

====

System: CCRF-CEM
TEST SUMMARY: NCI tumour cell line growth inhibition, 48 h
Calls of active or inactive are those of the source. No stated cut-off is given here; in the data, active = GI50 up to about 1.1 µM and inactive = higher.
The following compounds are listed with their measured GI50 values.

Some solved cases for reference:
{"columns": ["COMPOUND", "GI50"],
 "data": [
  ["COC(=O)c1ccc2c(c1)CC1(C2)Cc2ccccc2C1=O (stereo unspecified)", "19.9 µM (inactive)"],
  ["CC(=O)O[C@H]1C=CC23OC(=O)[C@]1(C)[C@H]2[C@H](C(=O)O)C12CC(=O)[C@@](CO)(CC[C@H]13)C2", "> 100 µM (inactive)"],
  ["O=C1CC(c2ccccc2Cl)C2(C(=O)NC(=S)NC2=O)C(c2ccccc2Cl)C1 (stereo unspecified)", "35.6 µM (inactive)"],
  ["Cc1cc(C#N)c(Nc2ccc(F)cc2[N+](=O)[O-])s1", "> 100 µM (inactive)"],
  ["Cc1cccc(Nc2nc3ccccc3nc2NS(=O)(=O)c2ccc(N)cc2)c1", "15.2 µM (inactive)"]
]}

Given "O=C(NCCCl)Nc1cccnc1" , state its recorded GI50.
33.7 µM (inactive)

Can you handle "O=Cc1cc2c(cc1-c1cc3c(cc1C=O)OCO3)OCO2" next?
23.4 µM (inactive)

Can you handle COc1cccc(C2ON=C(c3ccccc3)N2C23CC4CC(CC(C4)C2)C3)c1 (stereo unspecified) next?
> 10 µM (inactive)

Can you handle Cc1cc2nn(C3CCCCO3)nc2cc1C (stereo unspecified) next?
> 100 µM (inactive)

Can you handle "O=C(O)Cc1cccc2c(=O)cc(-c3ccccc3)oc12" next?
213 µM (inactive)

Can you handle "COc1ccc2c(c1OC)C(=O)c1cnccc1C2=O" next?
> 100 µM (inactive)

====

Tested on: HL-60
TEST SUMMARY: NCI tumour cell line growth inhibition, 48 h
Active and inactive are the calls of the source. Cut-off read from the data, not from the text of the source: active = GI50 up to about 1.1 µM and inactive = higher.
MEASURE: GI50

Some solved cases for reference:
{"columns": ["COMPOUND", "GI50"],
 "data": [
  ["O=Cc1cc2c(cc1-c1cc3c(cc1C=O)OCO3)OCO2", "34.1 µM (inactive)"],
  ["C[C@@H](c1ccccc1)n1c(N)c(-c2ccccn2)c2ccc([N+](=O)[O-])cc2c1=O", "52.4 µM (inactive)"],
  ["CC(=O)/C(=C/c1ccccc1F)C(=O)c1ccccc1", "21.4 µM (inactive)"]
]}

Given Cc1cc2c(c3oc(C4(C)OC4C4OC4C)cc(=O)c13)C(=O)c1c(O)c(C3CC(C)(N(C)C)C(O)C(C)O3)cc(C3CC(N(C)C)C(O)C(C)O3)c1C2=O (stereo not given) , state its recorded GI50.
0.0025 µM (active)

Can you handle "CN(C(=O)c1ccco1)C(=S)N1CCN(c2ccccn2)CC1" next?
> 100 µM (inactive)

Can you handle C=C(C)C(=O)O[C@H]1C/C(CO)=C/CCC(=C)C(OC(C)=O)[C@H]2OC(=O)C(=C)[C@H]12 (stereo not given in full) next?
3.09 µM (inactive)

Can you handle Cc1ccc(S(=O)OC2C3CC4CC(C3)CC2C4)cc1 (stereo not given) next?
> 100 µM (inactive)

Can you handle O=C1NC(Cc2c[nH]c3ccccc23)C(=O)N2C(c3ccccc3)c3[nH]c4ccccc4c3C[C@@H]12 (stereo not given in full) next?
20.5 µM (inactive)

Can you handle "C/C(=N/NC(=S)Nc1ccccc1C)c1ccccn1" next?
0.0143 µM (active)

Can you handle "c1ccc2c(c1)N[C@@H]1c3[nH]c4ccccc4c3CC[C@H]21" next?
16.1 µM (inactive)

====

System: RXF 631
TEST SUMMARY: NCI tumour cell line growth inhibition, 48 h
The source made the active and inactive calls. No stated cut-off is given here; in the data, active = GI50 up to about 1.1 µM and inactive = higher.
Give one outcome, nothing more. List: active, inactive

Solved cases (3 shown):
{"columns": ["COMPOUND", "CATEGORY LABEL"],
 "data": [
  ["COc1ccc(C(c2ccccc2)(c2ccc(OC)cc2)N2C(=O)NC3C(CCCCC(=O)NCCCCCCOP(OCCC#N)N(C(C)C)C(C)C)SCC32)cc1 (stereo not given)", "inactive"],
  ["COc1cc(OC)c2c(O)cc(CC(C)O)cc2c1 (stereo not given)", "inactive"],
  ["NC(=O)c1ncn(Cc2ccccc2)c1CNC(N)=S", "inactive"]
]}

Hi team, can someone confirm the assay call for Cc1cc2c(c3oc(C4(C)OC4C4OC4C)cc(=O)c13)C(=O)c1c(O)c(C3CC(C)(N(C)C)C(O)C(C)O3)cc(C3CC(N(C)C)C(O)C(C)O3)c1C2=O (stereo not given) ?
active

Can you handle COC(=O)C1=Cc2c(cc(OC)c(OC)c2OC)[C@H](c2ccc(OC)c(OC)c2OC)C1C(=O)OC (stereo not given in full) next?
inactive

====

Tested on: COLO 205
TEST SUMMARY: NCI tumour cell line growth inhibition, 48 h
Active and inactive are the calls of the source. Cut-off read from the data, not from the text of the source: active = GI50 up to about 1.1 µM and inactive = higher.
MEASURE: GI50

{"columns": ["COMPOUND", "VALUE"],
 "data": [
  ["FC1=C2C3CCC(C3)C2C1(F)F (configuration not stated)", "> 100 µM (inactive)"],
  ["O=C(O)C1SCCS1", "> 100 µM (inactive)"],
  ["O=C1NC2(CCCCC2)C(=O)N1CCN(CCCl)CCCl", "> 230 µM (inactive)"],
  ["C=CCOC(=O)c1c(C)[n+]([O-])c2cc(Cl)c(Cl)cc2[n+]1[O-]", "17.9 µM (inactive)"]
]}

Given "O=C(N/N=C\c1ccc([N+](=O)[O-])cc1)Nc1ccccc1" , state its recorded GI50.
> 100 µM (inactive)

Can you handle "CCOc1cc2c(c(OCC)c1O)CC[C@@H]1[C@@H]2CC[C@]2(C)[C@@H](O)CC[C@@H]12" next?
20.5 µM (inactive)

Can you handle "O=[N+]([O-])c1cc(C(F)(F)F)cc([N+](=O)[O-])c1CCl" next?
2.13 µM (inactive)

Can you handle "COc1ccc(/C=N/NC(=O)c2sc(=S)n(-c3ccccc3)c2N)cc1" next?
> 100 µM (inactive)

Can you handle "CCc1nnc(CC)n1N1C(=O)CCC1=O" next?
> 100 µM (inactive)

Can you handle O=C(c1ccccc1)c1c(CC(O)c2ccncc2)n(C(=O)c2ccccc2)c2ccccc12 (configuration not stated) next?
17.9 µM (inactive)

Can you handle "Clc1c2ncccc2cc2nn[nH]c12" next?
> 100 µM (inactive)

Can you handle CC1(C)SC2C(NC(=O)Cc3ccccc3)C(=O)N2C1C(=O)O (configuration not stated) next?
65.6 µM (inactive)

====

System: TK-10
TEST SUMMARY: NCI tumour cell line growth inhibition, 48 h
The source made the active and inactive calls. Cut-off read from the data, not from the text of the source: active = GI50 up to about 1.1 µM and inactive = higher.
The following compounds are listed with their measured GI50 values.

Some solved cases for reference:
{"columns": ["COMPOUND", "TARGET ENTITY", "GI50"],
 "data": [
  ["O=c1oc2cc(O)ccc2cc1-c1nc2ccccc2s1", "TK-10", "30.1 µM (inactive)"],
  ["Oc1ccc2c(O)cc(-c3ccccc3)nc2c1", "TK-10", "40.7 µM (inactive)"],
  ["COc1cc(C2c3cc4c(cc3OC(N3CCCC3)C2C)OCO4)cc(OC)c1O (configuration not stated)", "TK-10", "19.4 µM (inactive)"],
  ["[N-]=[N+]=NI1OC(C(F)(F)F)(C(F)(F)F)c2ccccc21", "TK-10", "16.5 µM (inactive)"],
  ["C=C1C=CC2(Br)OC3CC(C)(Cl)C(Br)CC13C2(C)C (configuration not stated)", "TK-10", "37.2 µM (inactive)"]
]}

Given "CC(C)(C)C(C#N)(C#N)c1ccc(C(C#N)(C#N)C(C)(C)C)nn1" , state its recorded GI50.
> 100 µM (inactive)

Can you handle COC(=O)C1OC(SCCN)C(O)C(O)C1O (configuration not stated) next?
> 100 µM (inactive)

Can you handle "CCN(C)c1nc(N(C)CC)c2nc(N(C)CC)nc(N(C)CC)c2n1" next?
> 100 µM (inactive)

====

Test system: SK-MEL-5
TEST SUMMARY: NCI tumour cell line growth inhibition, 48 h
Activity calls are given as the source filed them. Rule as the data show it: active = GI50 up to about 1.1 µM and inactive = higher.
The following compounds are listed with their measured GI50 values.

Some solved cases for reference:
{"columns": ["COMPOUND", "TARGET ENTITY", "GI50"],
 "data": [
  ["Clc1ccc2ns[s+]c2c1", "SK-MEL-5", "15.5 µM (inactive)"],
  ["O=[N+]([O-])c1ccc2c(c1)/C(=N/N=C1c3ccccc3Cc3ccccc31)c1cc([N+](=O)[O-])cc([N+](=O)[O-])c1-2", "SK-MEL-5", "4.42 µM (inactive)"],
  ["CCOP(C)(=O)C(Nc1ccc(F)cc1)c1ccc(F)cc1 (stereo unspecified)", "SK-MEL-5", "> 100 µM (inactive)"],
  ["CCCCCCCCCCCCCCCCCC(=O)OCC(COC1OC(COP(=O)(O)O)C(O)C(O)C1O)OC(=O)CCCCCCCCCCCCCCCCC (stereo unspecified)", "SK-MEL-5", "9.1 µM (inactive)"],
  ["NC(=O)c1ncn(Cc2ccccc2)c1CNC(N)=S", "SK-MEL-5", "> 100 µM (inactive)"]
]}

Then this compound:
Given Cc1nn(C(=O)Cc2ccccc2)c2c1C(c1ccccc1O)SC(=N)N2 (stereo unspecified) , state its recorded GI50.
> 100 µM (inactive)
